ASSAYED_SYSTEM: HTRA1
CONDITION_LABEL: ASO, U251, 5 µM
After the bases stand the sugars from the 5' end (letter, count) and the backbone: PS all phosphorothioate, else s phosphorothioate and o phosphodiester by linkage. Methylation of C is not given here. l = locked nucleic acid (LNA); d = 2'-deoxy (DNA)
MEASURED_PARAMETER: target mRNA inhibition

QUERY_SEQUENCE | ASSAYED_SYSTEM | MEASURED_PARAMETER | MEASURED
TGTAAGAAGTACTTTAATAG (sugars l4 d12 l4, PS) | HTRA1 | target mRNA inhibition | 79%
CTATCTACGCATTGTATC (sugars l2 d12 l4, PS) | HTRA1 | target mRNA inhibition | 77%
TCTTCTATCTACGCATTGT (sugars l2 d15 l2, PS) | HTRA1 | target mRNA inhibition | 57%
TAAGAAGTACTTTAATAG (sugars l4 d10 l4, PS) | HTRA1 | target mRNA inhibition | 65%
ATTGTATCGACTGCAT (sugars l3 d11 l2, PS) | HTRA1 | target mRNA inhibition | 99%
ATCGACTGCATTAGTT (sugars l3 d10 l3, PS) | HTRA1 | target mRNA inhibition | 99%
TACTTTAATAGCTCAA (sugars l4 d8 l4, PS) | HTRA1 | target mRNA inhibition | 95%
TTCTTCTATCTACGCATTG (sugars l3 d14 l2, PS) | HTRA1 | target mRNA inhibition | 82%

# ---- query sequence ----
Consider the sequence TACGCATTGTATCGAC (sugars l4 d8 l4, PS) and give its measured target mRNA inhibition.
66%
